Test target: human GLP-1 receptor (hGLP1R) (human, UniProt P43220 24-463)
Test details: cell-based or functional assay
Numbered stars: 1 amine (or outer) side, 2 acyl side, 3 side chain; on linkers, the order of the positions; unused ones are H or OH. Square brackets hold non-standard residues; d marks the D form. Side chains are listed from the residue outwards. Ends that are not written are not given here. * marks the point of attachment. C20 diacid = O=C(O)CCCCCCCCCCCCCCCCCCC(=O)*; γGlu = O=C(O)[C@H](CCC(=O)[*:2])N[*:1]; AEEA = NCCOCCOCC(=O)O; Aib = CC(C)(N)C(=O)O
Answer each item with its documented pEC50 hGLPR1.

# batch size: 8; output pEC50 hGLPR1 per entry
1. H[Aib]EGTFTSDVSELK([AEEA-AEEA-γGlu-C20 diacid])ETAAAQRFLEHLV-NH2 [SEQ ID NO: 57]
2. H[Aib]EGTFTSDVSVLK([AEEA-AEEA-γGlu-C20 diacid])EEAAAQRFLEHLV-NH2 [SEQ ID NO: 28]
3. H[Aib]EGTFTSDVSYLK([AEEA-AEEA-γGlu-C20 diacid])EEAATQRFLEHLV-NH2 [SEQ ID NO: 30]
4. H[Aib]EGTFTSDVSYLKEEA[Aib]IQRFLEHLV-NH2 (not fully specified (residue 14)) [SEQ ID NO: 139]
5. H[Aib]LGTFTSDVSYLK([AEEA-AEEA-γGlu-C20 diacid])EEA[Aib]LQRFLEHLV-NH2 [SEQ ID NO: 170]
6. H[Aib]EGTFTSDVSTLK([AEEA-AEEA-γGlu-C20 diacid])EEAA[Aib]QRFLEHLV-NH2 [SEQ ID NO: 77]
7. H[Aib]HGTFTSDVSYLK([AEEA-AEEA-γGlu-C20 diacid])EEA[Aib]LQRFLEHLV-NH2 [SEQ ID NO: 171]
8. H[Aib]EGTFTSDVSYLKEEA[Aib]SQRFLEHLV-NH2 (not fully specified (residue 14)) [SEQ ID NO: 134]

10.6 -log M
10.7 -log M
10.9 -log M
11.2 -log M
10.6 -log M
10.7 -log M
9.8 -log M
11.1 -log M

# batch size: 2; output pEC50 hGLPR1 per entry
1. H[Aib]EGTFTSDVSRLK([AEEA-AEEA-γGlu-C20 diacid])ELAA[Aib]QRFLEHLV-NH2 (also: K14 lipid also given as C18DA[γE][OEG][OEG]-) [SEQ ID NO: 10]
2. H[Aib]EGTFTSDVSFLK([AEEA-AEEA-γGlu-C20 diacid])EFAA[Aib]QRFLEHLV-NH2 [SEQ ID NO: 27]

9.7 -log M
10 -log M

This collection of values is drawn from patent US20260201008A1.
